Data provenance is a melting point compilation (Tetko et al.; mined from patent text by program, amines drawn as free bases though some values may be those of a salt).

Observation type: melting point

Examples with their reported melting point follow.
COc1ccc2c(C)nnc(Cl)c2c1	151 to 153 °C
CN1C=C(S(=O)(=O)C(F)(F)F)C(Cl)(c2ccc(Cl)cc2)C1 (stereo not given)	117 to 119 °C

Dear reader, for each entry below, please note its melting point.
1. Cc1nc2ccccc2n(-c2ccc(N)cc2)c1=O
2. CC(=O)c1cccc(N2CCN(CCCCOc3ccc4c(n3)NC(=O)CC4)CC2)c1Cl
3. COc1ccccc1N1CCN(C[C@@H](CC2CCCCC2)NC(=O)C2CCCCC2)CC1
4. COC(=O)c1cccc(-c2ccc3c(c2)NCC3)c1
5. O=C(O)c1ccccc1SCCCCOc1ccc(C=Cc2ccncc2)cc1

Data returned:
["269 to 271 °C", "138 to 139 °C", "121 to 131 °C", "104 to 105 °C", "229 to 231 °C"]

Dear colleague, could you please provide melting point for the compounds listed below?
1. COCCc1cccc2oc(C(=O)O)c(C)c12
2. CCCN1N=C2C(=Cc3ccc(Cl)cc3)CS(=O)(=O)CC2C1c1ccc(Cl)cc1 (stereo not given)
3. Cc1cc(=O)oc2nn(Cc3cccs3)c(C)c12
4. COc1cc(CC(=O)Nc2ccc(C(C)CC(=O)O)cc2)ccc1NC(=O)N1CCc2ccccc21 (stereo not given)
5. CN1Cc2c(C(=O)OC(C)(C)C)ncn2-c2ccc(F)cc2C1=O
6. CCCCCCCCC#CCC#CCC#CCS(=O)(=O)CC(=O)O
7. Cc1nc(N2CCN(Cc3cc(F)cc(F)c3)C2=O)sc1C(N)=O

Data returned:
1: 138 to 140 °C; 2: 208 to 210 °C; 3: 164 to 167 °C; 4: 152 to 154 °C; 5: 228 to 229 °C; 6: 132 °C; 7: > 200 °C

For each of the compounds below, state melting point.
1. CC(=O)OCC(=O)C1(O)C(C)CC2C3CC(C)C4=CC(=O)C=CC4(C)C3=CCC21C (stereo not given)
2. CCOC(=O)COc1cc(OC)c2c(c1[N+](=O)[O-])OC1(CCCCC1)CC2=O
3. Cc1c(N2CCC(N(C)C)C(C)C2)c(F)cc2c(=O)c(C(=O)O)cn(C3CC3)c12 (stereo not given)

Data returned:
1: 215 to 216 °C; 2: 142 to 143 °C; 3: 221 °C
